B1: HDV Ribozyme (parent)
chain: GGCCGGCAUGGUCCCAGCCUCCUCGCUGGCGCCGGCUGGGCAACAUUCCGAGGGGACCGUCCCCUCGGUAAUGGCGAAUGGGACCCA

# Variants of: B1
# ASSAY PROCEDURE: self-cleavage, relative activity (ratio to wild type); higher = more cleavage; co-transcriptional
Entries and their self-cleavage values follow.
Lab note: write the figure by itself, no unit.

| VARIANT NAME | MEASUREMENT |
| --- | --- |
| U69G G73U | 0.314 |
| C33U C49A | 0.946 |
| G40U A70G | 0.528 |
| C64A C85G | 0.594 |
| C32A C86U | 0.147 |
| G29C G74U | 0 |
| G28C U65C | 0.101 |
| C32G G52A | 0.254 |

Param item = C48U C85U ; retrieve measured self-cleavage.
1.14

Param item = G1C A83C ; retrieve measured self-cleavage.
0.185

Param item = C18U C48G ; retrieve measured self-cleavage.
0.683

Param item = C24A A78U ; retrieve measured self-cleavage.
0.0923

Param item = G11U C19U ; retrieve measured self-cleavage.
0.0489

Param item = G17C A51G ; retrieve measured self-cleavage.
0.317

// data source = the RNAGym collection of RNA variant scans (doi:10.7554/elife.80360)
